tested on: Klebsiella pneumoniae; assay: Inhibition of beta lactamase KPC-2 in Klebsiella pneumoniae BAA-1705 assessed as potentiation of meropenem-induced antibacterial activity by measuring meropenem MIC at 50 uM after 16 to 20 hrs by broth microdilution assay
metric: MIC (µg/mL)
Give bare numbers, in µg/mL.

structure.notation | MIC / µg/mL
C[C@H](CS)C(=O)NCB(O)O | 8

State recorded MIC for all listed compounds.
1. C[C@H](CS)C(=O)N[C@@H](Cc1ccccc1)B(O)O
2. C[C@H](CS)C(=O)N[C@H](Cc1ccccc1)B(O)O
3. C[C@]1(Cn2ccnn2)[C@H](C(=O)O)N2C(=O)C[C@H]2S1(=O)=O
4. C[C@H](CS)C(=O)N[C@@H](Cc1coc2ccccc12)B(O)O
5. C[C@H](CS)C(=O)N[C@H](Cc1coc2ccccc12)B(O)O

1: 16; 2: 16; 3: 16; 4: 8; 5: 16

Attribution: ChEMBL document CHEMBL4373692
